# system name: Serine/threonine-protein kinase ULK3 (Homo sapiens, UniProt Q6PHR2); further: in the data inactive means no Kd found up to 30 µM
# Sequence (Q6PHR2 whole entry): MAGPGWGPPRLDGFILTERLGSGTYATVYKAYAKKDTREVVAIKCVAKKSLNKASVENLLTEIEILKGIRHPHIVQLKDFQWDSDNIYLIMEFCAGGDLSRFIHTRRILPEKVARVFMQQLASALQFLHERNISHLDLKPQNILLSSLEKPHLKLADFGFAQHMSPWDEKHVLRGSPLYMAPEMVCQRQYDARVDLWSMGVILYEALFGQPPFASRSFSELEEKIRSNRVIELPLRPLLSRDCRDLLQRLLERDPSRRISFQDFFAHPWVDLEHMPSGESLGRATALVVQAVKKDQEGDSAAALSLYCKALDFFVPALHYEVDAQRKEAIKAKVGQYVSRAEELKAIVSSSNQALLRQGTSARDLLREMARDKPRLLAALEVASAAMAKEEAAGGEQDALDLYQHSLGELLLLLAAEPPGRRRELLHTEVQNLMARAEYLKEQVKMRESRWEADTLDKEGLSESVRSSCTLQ
The source made the active and inactive calls.
Entry note: the call must match one of true (1) (active), false (0) (inactive)

See these solved cases before continuing.
Cn1cc(-c2[nH]c3cc(NC(=O)[C@H](N)C4CCCCC4)cc4c3c2C=NNC4=O)cn1
true (1)
COc1ccc(-c2ccc3ncc4c(c3c2)n(-c2ccc(N3CCNCC3)c(C(F)(F)F)c2)c(=O)n4C)cn1 [BGT-226 FREE BASE]
false (0)

Problem: Hi, sorry to bother you, what did the test record for `NC[C@@](O)(c1ccc(Cl)cc1)c1ccc(-c2cn[nH]c2)cc1` ?
Result: false (0)

Problem: Hi, sorry to bother you, what did the test record for `CC[C@@](C)(Nc1ccnc(-c2c[nH]c3ncccc23)n1)C(=O)NCC(F)(F)F` ?
Result: false (0)

---

Active and inactive are the calls of the source.
# U5 small nuclear ribonucleoprotein 200 kDa helicase (Homo sapiens, UniProt O75643): Kd values follow; further: in the data inactive means no Kd found up to 30 µM
# Sequence (O75643 whole entry): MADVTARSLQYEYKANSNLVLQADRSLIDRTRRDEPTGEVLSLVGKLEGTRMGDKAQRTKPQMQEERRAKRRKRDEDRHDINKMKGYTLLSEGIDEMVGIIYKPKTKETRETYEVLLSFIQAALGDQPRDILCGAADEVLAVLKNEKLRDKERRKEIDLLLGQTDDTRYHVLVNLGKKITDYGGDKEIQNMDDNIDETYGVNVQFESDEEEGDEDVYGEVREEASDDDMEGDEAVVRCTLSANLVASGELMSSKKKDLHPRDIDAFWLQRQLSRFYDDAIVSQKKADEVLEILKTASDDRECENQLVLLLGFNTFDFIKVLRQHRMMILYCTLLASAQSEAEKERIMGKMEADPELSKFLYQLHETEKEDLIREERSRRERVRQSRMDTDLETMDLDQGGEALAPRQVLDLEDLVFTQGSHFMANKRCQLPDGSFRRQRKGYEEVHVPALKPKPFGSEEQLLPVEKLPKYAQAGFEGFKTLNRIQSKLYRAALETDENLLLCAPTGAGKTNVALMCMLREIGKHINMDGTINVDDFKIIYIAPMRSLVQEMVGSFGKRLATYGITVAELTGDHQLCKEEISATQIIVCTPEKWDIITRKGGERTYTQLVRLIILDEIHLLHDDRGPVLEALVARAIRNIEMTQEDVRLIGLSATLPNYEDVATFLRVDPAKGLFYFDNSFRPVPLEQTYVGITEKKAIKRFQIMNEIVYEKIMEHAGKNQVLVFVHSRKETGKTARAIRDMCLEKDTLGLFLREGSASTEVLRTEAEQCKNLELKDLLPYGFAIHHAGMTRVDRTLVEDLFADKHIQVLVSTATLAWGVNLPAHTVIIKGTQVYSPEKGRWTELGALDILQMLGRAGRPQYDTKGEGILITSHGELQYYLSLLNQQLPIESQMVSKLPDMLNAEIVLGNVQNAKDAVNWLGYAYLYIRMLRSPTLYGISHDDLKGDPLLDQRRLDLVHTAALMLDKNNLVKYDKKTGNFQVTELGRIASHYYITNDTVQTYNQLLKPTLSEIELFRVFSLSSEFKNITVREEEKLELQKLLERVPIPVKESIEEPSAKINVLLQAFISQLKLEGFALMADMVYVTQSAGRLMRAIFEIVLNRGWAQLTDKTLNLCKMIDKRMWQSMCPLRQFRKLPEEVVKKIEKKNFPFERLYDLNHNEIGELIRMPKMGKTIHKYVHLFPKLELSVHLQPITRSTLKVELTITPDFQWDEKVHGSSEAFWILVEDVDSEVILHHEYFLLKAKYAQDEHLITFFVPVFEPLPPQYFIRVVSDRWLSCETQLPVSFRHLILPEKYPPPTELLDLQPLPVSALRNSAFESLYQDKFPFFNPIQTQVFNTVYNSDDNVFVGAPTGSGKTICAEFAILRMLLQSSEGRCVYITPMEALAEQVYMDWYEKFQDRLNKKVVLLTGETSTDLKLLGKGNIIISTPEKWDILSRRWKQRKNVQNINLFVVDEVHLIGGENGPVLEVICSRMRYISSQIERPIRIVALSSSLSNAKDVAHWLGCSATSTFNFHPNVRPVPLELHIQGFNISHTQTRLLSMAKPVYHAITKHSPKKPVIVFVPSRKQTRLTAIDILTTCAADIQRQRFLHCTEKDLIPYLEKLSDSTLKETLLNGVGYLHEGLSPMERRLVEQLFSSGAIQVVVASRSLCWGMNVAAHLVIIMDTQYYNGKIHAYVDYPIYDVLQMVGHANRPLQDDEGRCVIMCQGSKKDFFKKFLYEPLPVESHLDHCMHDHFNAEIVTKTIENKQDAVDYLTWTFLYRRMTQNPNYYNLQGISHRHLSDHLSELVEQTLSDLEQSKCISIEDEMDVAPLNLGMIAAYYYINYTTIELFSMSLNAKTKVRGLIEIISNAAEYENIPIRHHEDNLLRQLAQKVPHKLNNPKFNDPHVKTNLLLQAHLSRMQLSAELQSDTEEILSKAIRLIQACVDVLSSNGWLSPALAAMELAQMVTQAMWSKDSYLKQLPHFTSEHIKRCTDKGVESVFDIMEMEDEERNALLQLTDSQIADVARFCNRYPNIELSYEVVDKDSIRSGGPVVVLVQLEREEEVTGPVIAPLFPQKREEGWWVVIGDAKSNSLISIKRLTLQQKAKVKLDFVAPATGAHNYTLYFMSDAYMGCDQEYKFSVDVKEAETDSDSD

CN(c1ncccc1CNc1nc(Nc2ccc3c(c2)CC(=O)N3)ncc1C(F)(F)F)S(C)(=O)=O
> 30 µM (inactive)

Give Kd for each listed item.
1. C=CC(=O)Nc1cc(Nc2nccc(-c3cn(C)c4ccccc34)n2)c(OC)cc1N(C)CCN(C)C
2. CNC(=O)c1cc(COc2nnc(Nc3ccc(Cl)cc3)c3ccoc23)ccn1
3. COc1cc2ncnc3c2cc1OCCCCCN(C)Cc1ccc(Br)cc1N3
4. O[C@H]1CC[C@H](Nc2ncc3nc(Nc4c(F)cc(F)cc4F)n([C@H]4CCOC4)c3n2)CC1
5. COc1cccc(Nc2ncnn3ccc(CN4CC[C@@H](N)[C@H](O)C4)c23)c1
6. CCN(CCCOc1ccc2c(Nc3cc(CC(=O)Nc4cccc(F)c4)n[nH]3)ncnc2c1)CCOP(=O)(O)O

Result:
1: > 30 µM (inactive); 2: > 30 µM (inactive); 3: > 30 µM (inactive); 4: > 30 µM (inactive); 5: > 30 µM (inactive); 6: > 30 µM (inactive)

---

# system name: Serine/threonine-protein kinase 4 (Homo sapiens, UniProt Q13043); further: in the data inactive means no Kd found up to 30 µM
# Sequence (Q13043 whole entry): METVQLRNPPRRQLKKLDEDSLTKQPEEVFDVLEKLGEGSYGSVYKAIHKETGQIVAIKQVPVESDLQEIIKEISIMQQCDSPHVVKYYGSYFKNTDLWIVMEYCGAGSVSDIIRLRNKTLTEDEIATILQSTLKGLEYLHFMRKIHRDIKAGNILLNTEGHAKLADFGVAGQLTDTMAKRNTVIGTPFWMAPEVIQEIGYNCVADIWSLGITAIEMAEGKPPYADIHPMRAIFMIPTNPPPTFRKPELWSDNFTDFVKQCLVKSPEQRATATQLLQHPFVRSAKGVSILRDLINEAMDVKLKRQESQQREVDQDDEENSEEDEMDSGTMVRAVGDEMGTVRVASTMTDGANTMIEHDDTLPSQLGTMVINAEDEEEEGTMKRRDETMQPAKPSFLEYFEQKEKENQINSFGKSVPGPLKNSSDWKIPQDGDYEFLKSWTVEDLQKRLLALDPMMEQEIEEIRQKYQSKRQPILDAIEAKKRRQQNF
The source made the active and inactive calls.
Entry note: the call must match one of True = active, False = inactive

C=CC(=O)Nc1cc(Nc2nccc(-c3cn(C)c4ccccc34)n2)c(OC)cc1N(C)CCN(C)C
False
COc1cccc2cc(-c3nc([C@H]4CC[C@H](C(=O)O)CC4)n4ncnc(N)c34)[nH]c12
False
O=C(NOC[C@H](O)CO)c1ccc(F)c(F)c1Nc1ccc(I)cc1F
False

Problem: Hi, sorry to bother you, what did the test record for `CC[C@@](C)(Nc1ccnc(-c2c[nH]c3ncccc23)n1)C(=O)NCC(F)(F)F` ?
Result: False

Problem: Hi, sorry to bother you, what did the test record for `C=CC(=O)Nc1cccc(Nc2nc(Nc3ccc(N4CCN(C(C)=O)CC4)cc3OC)ncc2C(F)(F)F)c1` ?
Result: False

Problem: Hi, sorry to bother you, what did the test record for `CCN(CCCOc1ccc2c(Nc3cc(CC(=O)Nc4cccc(F)c4)n[nH]3)ncnc2c1)CCOP(=O)(O)O` ?
Result: False

Problem: Hi, sorry to bother you, what did the test record for `Cn1cc(-c2[nH]c3cc(NC(=O)[C@H](N)C4CCCCC4)cc4c3c2C=NNC4=O)cn1` ?
Result: False

Problem: Hi, sorry to bother you, what did the test record for `Cc1c(Cn2c(C)nc3c(C(=O)O)cc(N4CCOCC4)cc32)cccc1C(F)(F)F` ?
Result: False

Problem: Hi, sorry to bother you, what did the test record for `COc1ccc2c(OCc3nnc4ccc(-c5ccccc5)nn34)ccnc2c1` ?
Result: False

Problem: Hi, sorry to bother you, what did the test record for `COc1cc2ncnc3c2cc1OCCCCCN(C)Cc1ccc(Br)cc1N3` ?
Result: False

Problem: Hi, sorry to bother you, what did the test record for `O=C(O)c1ccc2c(c1)nc(Nc1cccc(Cl)c1)c1ccncc12` ?
Result: False

Problem: Hi, sorry to bother you, what did the test record for O=S(=O)(c1cccc2c(O)nccc12)N1CCCNCC1 [HYDROXYFASUDIL] ?
Result: False

Problem: Hi, sorry to bother you, what did the test record for `O=C(NC[C@H](O)CO)c1ccncc1Nc1ccc(I)cc1F` ?
Result: False

Problem: Hi, sorry to bother you, what did the test record for `COc1cc2ncnc(Nc3ccc(O)cc3)c2cc1OC` ?
Result: False

Problem: Hi, sorry to bother you, what did the test record for `Cc1cc(-c2cc(OC(=O)c3ccccc3)ccc2Cl)cc2nnc(Nc3ccc(OCCN4CCCC4)cc3)nc12` ?
Result: False

---

# system name: Dual specificity mitogen-activated protein kinase kinase 5 (Homo sapiens); further: in the data inactive means no Kd found up to 30 µM
# Sequence (Q13163 whole entry): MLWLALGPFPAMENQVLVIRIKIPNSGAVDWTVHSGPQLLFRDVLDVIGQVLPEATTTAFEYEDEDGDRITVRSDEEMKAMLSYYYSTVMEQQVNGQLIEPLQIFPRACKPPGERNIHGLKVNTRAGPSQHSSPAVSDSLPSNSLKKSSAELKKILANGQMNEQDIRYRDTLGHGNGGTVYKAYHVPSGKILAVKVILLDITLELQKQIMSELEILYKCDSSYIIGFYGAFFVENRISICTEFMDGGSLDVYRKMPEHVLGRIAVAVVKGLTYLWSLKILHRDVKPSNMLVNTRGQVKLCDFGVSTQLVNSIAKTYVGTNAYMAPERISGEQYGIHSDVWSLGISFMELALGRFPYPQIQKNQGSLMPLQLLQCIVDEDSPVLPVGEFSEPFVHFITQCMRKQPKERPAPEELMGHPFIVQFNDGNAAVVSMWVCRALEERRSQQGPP
Activity calls are given as the source filed them.
Entry note: the call must match one of y (active), n (inactive)

See these solved cases before continuing.
O=C(NOC[C@H](O)CO)c1ccc(F)c(F)c1Nc1ccc(I)cc1F
y
CN(c1ncccc1CNc1nc(Nc2ccc3c(c2)CC(=O)N3)ncc1C(F)(F)F)S(C)(=O)=O
n
CCc1nc(C(N)=O)c(Nc2ccc(N3CCC(N4CCN(C)CC4)CC3)c(OC)c2)nc1NC1CCOCC1
y

Problem: Hi, sorry to bother you, what did the test record for `NC[C@@](O)(c1ccc(Cl)cc1)c1ccc(-c2cn[nH]c2)cc1` ?
Result: n

Problem: Hi, sorry to bother you, what did the test record for `CN1CCN(c2nc(C3=C(c4c[nH]c5ccccc45)C(=O)NC3=O)c3ccccc3n2)CC1` ?
Result: n

Problem: Hi, sorry to bother you, what did the test record for `O=S(=O)(c1cccc2cnccc12)N1CCCNCC1` ?
Result: n

Problem: Hi, sorry to bother you, what did the test record for `C=CC(=O)Nc1cccc(Nc2nc(Nc3ccc(N4CCN(C(C)=O)CC4)cc3OC)ncc2C(F)(F)F)c1` ?
Result: n

Problem: Hi, sorry to bother you, what did the test record for `COc1cc2ncnc(Nc3ccc(O)cc3)c2cc1OC` ?
Result: n

Problem: Hi, sorry to bother you, what did the test record for `Cc1ccc(C(=O)Nc2ccc(Oc3cc4cnn(C)c4cc3-c3cn[nH]c3)c(F)c2)c(=O)n1-c1ccc(F)cc1` ?
Result: n

Problem: Hi, sorry to bother you, what did the test record for `O=C(NC[C@H](O)CO)c1ccncc1Nc1ccc(I)cc1F` ?
Result: n

Problem: Hi, sorry to bother you, what did the test record for `O[C@H]1CC[C@H](Nc2ncc3nc(Nc4c(F)cc(F)cc4F)n([C@H]4CCOC4)c3n2)CC1` ?
Result: n
